Where these numbers come from: paper PMC8348901

Tested on: Hap1 (chronic myeloid leukemia)
Assay summary: Cytostatic activity (cell proliferation)
Format: cell-based
Listing of entries alongside the reported IC50.

- Molecule: "CCOP(=O)(OCC)[C@@H]1[C@H](c2ccccc2)C(=O)N1C (relative stereo) [cis-10a]"
  Bound type: "="
  IC50, µM: 46.3
- Molecule: "CN[C@@H]1C[C@H]2O[C@@](C)([C@@H]1OC)n1c3ccccc3c3c4c(c5c6ccccc6n2c5c31)C(=O)NC4 [Stauroporine, reference compound]"
  Bound type: "="
  IC50, µM: 3.55
- Molecule: "CCOP(=O)(OCC)[C@H]1[C@H](c2ccccc2)C(=O)N1C (relative stereo) [trans-10a]"
  Bound type: ">"
  IC50, µM: 100

---

Test system: hTERT RPE-1 normal retina (non-cancerous) cells
Assay summary: Cytostatic activity (cell proliferation)
Assay type: cell-based
pIC50: −log10 of the molar value.

- Molecule: "CCOP(=O)(OCC)[C@H]1[C@H](c2ccccc2)C(=O)N1C (relative stereo) [trans-10a]"
  pIC50: "< 4.00"
- Molecule: "CN[C@@H]1C[C@H]2O[C@@](C)([C@@H]1OC)n1c3ccccc3c3c4c(c5c6ccccc6n2c5c31)C(=O)NC4 [Stauroporine, reference compound]"
  pIC50: 6.60
- Molecule: "CCOP(=O)(OCC)[C@@H]1[C@H](c2ccccc2)C(=O)N1C (relative stereo) [cis-10a]"
  pIC50: "< 4.00"

---

System: NCI-H460 (lung carcinoma)
Assay summary: Cytostatic activity (cell proliferation)
Type: cell-based
Applied conditions: Homo sapiens, NCI-H460

- Molecule: "COc1cc([C@@H]2c3cc4c(cc3[C@@H](O[C@@H]3O[C@@H]5CO[C@@H](C)O[C@H]5[C@H](O)[C@H]3O)[C@H]3COC(=O)[C@H]23)OCO4)cc(OC)c1O [Etoposide, reference compound]"
  IC50 [µM]: 1.35
- Molecule: "CC(=O)O[C@@]12CO[C@@H]1C[C@H](O)[C@@]1(C)C(=O)[C@H](O)C3=C(C)[C@@H](OC(=O)[C@H](O)[C@@H](NC(=O)OC(C)(C)C)c4ccccc4)C[C@@](O)([C@@H](OC(=O)c4ccccc4)[C@H]21)C3(C)C [Docetaxel, reference compound]"
  IC50 [µM]: 0.89
- Molecule: "CCOP(=O)(OCC)[C@@H]1[C@H](c2ccc(F)cc2F)C(=O)N1Cc1ccccc1 (relative stereo) [cis-11e]"
  IC50 [µM]: 43
- Molecule: "CCOP(=O)(OCC)[C@@H]1[C@H](c2ccc(F)cc2F)C(=O)N1C (relative stereo) [cis-10e]"
  IC50 [µM]: 92.6
- Molecule: "CCOP(=O)(OCC)[C@@H]1[C@H](c2ccc(F)c(C)c2)C(=O)N1Cc1ccccc1 (relative stereo) [cis-11f]"
  IC50 [µM]: 53.6
